# Test system: L. mexicana SUPKO+TcoAT1
# protocolDetails: microbe, parasite or virus in culture
# Format: cell-based, Leishmania mexicana
# setupConditions: Leishmania mexicana, read-out: SUPKO+TcoAT1 EC50
metricName: EC50 (µM)
// units = µM; emit number, no label

molecule	observedResult
Nc1ncnc2c1c(F)cn2[C@@H]1O[C@H](CO)[C@@H](O)[C@H]1O	7.5

Below: the item to evaluate.
## Task Reported EC50 for N=C(N)c1ccc(OCCCCCOc2ccc(C(=N)N)cc2)cc1 [Pentamidine, reference compound] : what is it?
## Result 1.73

----------
# Tested on: human embryonic kidney (HEK) cells
# protocolDetails: Resazurin toxicity assay on human embryonic kidney cells
# Format: cell-based
# setupConditions: selectivity index = EC50 (HEK cells)/EC50 (T. congolense)
# Method: EC50 values were determined by plotting to an equation for a sigmoid curve with variable slope (GraphPad Prism 8). All values were the average of at least three independent determinations on different days.
metricName: SI T. congolense

# count of solved cases: 3
Nc1ncnc2c1c(Cl)cn2[C@@H]1O[C@H](CO)C[C@H]1O 9800
Nc1ncnc2c1c(-c1ccccn1)cn2[C@@H]1O[C@H](CO)[C@@H](O)[C@H]1O 110
Nc1ncnc2c1c(Cl)cn2[C@@H]1O[C@H](CO)[C@@H](O)[C@H]1O 5.3

## Task Reported SI T. congolense for Nc1ncnc2c1c(Br)cn2[C@H]1C[C@H](O)[C@@H](CO)O1 : what is it?
## Result >390

----------
# Test system: T. equiperdum
# protocolDetails: Alamar Blue (resazurin) assay, T. equiperdum
# Type: cell-based, Trypanosoma equiperdum
# setupConditions: Trypanosoma equiperdum, read-out: T. equiperdum EC50
Entries and their pEC50
Value format note: pEC50 is -log10 of concentration (mol/L); just state the number.

Nc1ncnc2c1c(Br)cn2[C@@H]1O[C@H](CO)C[C@H]1O 9.29

Below: the item to evaluate.
## Task Reported pEC50 for Nc1ncnc2c1c(C(F)(F)F)cn2[C@@H]1O[C@H](CO)[C@@H](O)[C@H]1O : what is it?
## Result 6.72

----------
# Test system: L. mexicana SUPKO+TcoAT1
# protocolDetails: microbe, parasite or virus in culture
# Assay type: cell-based, Leishmania mexicana
# setupConditions: resazurin, promastigotes; read-out: SUPKO+TcoAT1 EC50
metricName: pEC50
Value format note: pEC50 is -log10 of concentration (mol/L); just state the number.

compound	pEC50
Nc1ncnc2c1c(Br)cn2[C@@H]1O[C@H](CO)[C@@H](O)[C@H]1O [TH1003]	4.15
Nc1ncnc2c1c(F)cn2[C@@H]1O[C@H](CO)C[C@H]1O [FH8517]	5.21
Nc1ncnc2c1ccn2C1OC(CO)CC1O (centres unmarked) [FH7429_d, 3′-deoxytubercidin]	4.19
C#Cc1cn([C@@H]2O[C@H](CO)C[C@H]2O)c2ncnc(N)c12 [FH8505]	4.05

## Task Reported pEC50 for Nc1ncnc2c1c(I)cn2[C@@H]1O[C@H](CO)C[C@H]1O [FH8496] : what is it?
## Result 4.62

## Task Also, Nc1ncnc2c1c(Cl)cn2[C@@H]1O[C@H](CO)[C@@H](O)[C@H]1O [FH3169] please.
## Result 5.03

## Task Also, COc1ncnc2c1ccn2[C@@H]1O[C@H](CO)[C@@H](O)[C@H]1O [CL4510, 6-methoxy-7-deazapurine riboside] please.
## Result 5.66

----------
# assayTarget: TvxNT3 (Trypanosoma vivax, UniProt F9WV62)
# Sequence (F9WV62 entry or part of it): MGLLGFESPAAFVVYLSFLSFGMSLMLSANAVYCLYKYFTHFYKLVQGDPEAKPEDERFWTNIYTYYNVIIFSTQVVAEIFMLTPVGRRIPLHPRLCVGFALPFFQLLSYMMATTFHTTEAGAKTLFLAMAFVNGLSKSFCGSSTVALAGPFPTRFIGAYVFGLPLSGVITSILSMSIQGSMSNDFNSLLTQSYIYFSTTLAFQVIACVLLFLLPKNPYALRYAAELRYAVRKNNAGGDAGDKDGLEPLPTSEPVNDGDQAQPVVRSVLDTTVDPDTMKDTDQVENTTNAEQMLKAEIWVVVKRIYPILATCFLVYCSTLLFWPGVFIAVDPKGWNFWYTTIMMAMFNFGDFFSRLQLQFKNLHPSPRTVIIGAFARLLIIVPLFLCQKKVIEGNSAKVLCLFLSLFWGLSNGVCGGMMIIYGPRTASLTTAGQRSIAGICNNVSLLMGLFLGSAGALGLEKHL
metricName: pKi
Value format note: pKi is -log10 of concentration (mol/L); just state the number.

compound	pKi
COc1ncnc2c1ccn2[C@@H]1O[C@H](CO)[C@@H](O)[C@H]1O [CL4510, 6-methoxy-7-deazapurine riboside]	4.79

## Task // fetch TvxNT3 (Trypanosoma vivax, UniProt F9WV62) pKi for Nc1ncnc2c1ccn2C1OC(CO)CC1O (centres unmarked)
## Result 3.41

----------
# assayTarget: TcoAT1
# Assay type: cell-based, Trypanosoma congolense
# setupConditions: 0.05 µM [3H]-adenosine, 10 s; IC50 converted to Ki; listed as ADE; read-out: Ki on the transport of [3H]-adenosine
metricName: Ki (µM)
// units = µM; emit number, no label

## Task Reported Ki for Nc1ncnc2[nH]cnc12 : what is it?
## Result 786

----------
# Tested on: human embryonic kidney (HEK) cells
# protocolDetails: Resazurin toxicity assay on human embryonic kidney cells
# Assay type: cell-based
# setupConditions: selectivity index = EC50 (HEK cells)/EC50 (T. congolense)
# Description: EC50 values were determined by plotting to an equation for a sigmoid curve with variable slope (GraphPad Prism 8). All values were the average of at least three independent determinations on different days.
Entries and their SI T. congolense

# count of solved cases: 3
Nc1ncnc2c1c(F)cn2[C@@H]1O[C@H](CO)[C@@H](O)[C@H]1O 1.1
Nc1ncnc2c1c(I)cn2[C@@H]1O[C@H](CO)C[C@H]1O 902
Nc1ncnc2c1c(Br)cn2[C@@H]1O[C@H](CO)C[C@H]1O 3158

## Task Reported SI T. congolense for Nc1ncnc2c1ccn2[C@H]1C[C@H](O)[C@@H](CO)O1 : what is it?
## Result >4.6

## Task Also, Nc1ncnc2c1c(Br)cn2[C@@H]1O[C@H](CO)[C@@H](O)[C@H]1O please.
## Result 3.0

## Task Also, Nc1ncnc2c1c(C(F)(F)F)cn2[C@@H]1O[C@H](CO)[C@@H](O)[C@H]1O please.
## Result 0.3

## Task Also, Nc1ncnc2c1c(F)cn2[C@@H]1O[C@H](CO)C[C@H]1O please.
## Result 330

## Task Also, C#Cc1cn([C@@H]2O[C@H](CO)C[C@H]2O)c2ncnc(N)c12 please.
## Result 68

----------
# System: T. congolense 6C3
# protocolDetails: microbe, parasite or virus in culture
# Assay type: cell-based, Trypanosoma congolense
# setupConditions: resistance factor = EC50 (test strain)/EC50(control strain)
Marks after values point to notes of the source that are not given here.
Entries and their T. congolense 6C3 RF

compound	T. congolense 6C3 RF
Nc1ncnc2c1c(Cl)cn2[C@@H]1O[C@H](CO)C[C@H]1O	0.53 ^a
Nc1ncnc2c1c(F)cn2[C@@H]1O[C@H](CO)C[C@H]1O	0.60
Nc1ncnc2c1ccn2[C@H]1C[C@H](O)[C@@H](CO)O1	0.25

Below: the item to evaluate.
## Task Reported T. congolense 6C3 RF for Nc1ncnc2c1c(I)cn2[C@@H]1O[C@H](CO)C[C@H]1O : what is it?
## Result 0.56

----------
# assayTarget: TcoAT1
# Assay type: cell-based, Trypanosoma congolense
# setupConditions: 0.05 µM [3H]-adenosine, 10 s; IC50 converted to Ki; read-out: Ki on the transport of [3H]-adenosine
metricName: Ki

# count of solved cases: 5
molecule	assayTarget	observedResult
Cc1cn([C@H]2C[C@H](O)[C@@H](CO)O2)c(=O)[nH]c1=O	TcoAT1	434 µM
Nc1ncnc2c1ccn2[C@@H]1O[C@H](CO)[C@@H](O)[C@H]1O	TcoAT1	754 µM
Nc1ncnc2c1ncn2[C@H]1CC[C@@H](CO)O1	TcoAT1	51.9 µM
O=c1ccn([C@@H]2O[C@H](CO)[C@@H](O)[C@H]2O)c(=O)[nH]1	TcoAT1	1470 µM
Nc1ncnc2c1c(F)cn2[C@@H]1O[C@H](CO)C[C@H]1O	TcoAT1	229 µM

Below: the item to evaluate.
## Task Reported Ki for Nc1ncnc2[nH]cnc12 : what is it?
## Result 761 µM

----------
# Tested on: L. mexicana SUPKO
# protocolDetails: microbe, parasite or virus in culture
# Type: cell-based, Leishmania mexicana
# setupConditions: Resistance Factor = EC50(SUPKO)/EC50(Cas9)
metricName: SUPKO RF (Cas9)

# count of solved cases: 5
compound	assayTarget	observedResult
Nc1ncnc2c1ncn2[C@@H]1O[C@H](CO)C[C@H]1O [Cordycepin, 3′-deoxyadenosine]	L. mexicana SUPKO	>1.09
Nc1ncnc2c1c(Br)cn2[C@@H]1O[C@H](CO)C[C@H]1O	L. mexicana SUPKO	>3.6
COc1ncnc2c1ccn2[C@@H]1O[C@H](CO)[C@@H](O)[C@H]1O [CL4510, 6-methoxy-7-deazapurine riboside]	L. mexicana SUPKO	5.84
C#Cc1cn([C@@H]2O[C@H](CO)C[C@H]2O)c2ncnc(N)c12	L. mexicana SUPKO	>1.08
Nc1ncnc2c1c(C(F)(F)F)cn2[C@@H]1O[C@H](CO)[C@@H](O)[C@H]1O	L. mexicana SUPKO	>3.83

## Task Reported SUPKO RF (Cas9) for Nc1ncnc2c1c(-c1ccccn1)cn2[C@@H]1O[C@H](CO)[C@@H](O)[C@H]1O : what is it?
## Result >8.5

## Task Also, Nc1ncnc2c1c(Cl)cn2[C@@H]1O[C@H](CO)[C@@H](O)[C@H]1O please.
## Result 67.7

## Task Also, Nc1ncnc2c1c(Br)cn2[C@@H]1O[C@H](CO)[C@@H](O)[C@H]1O please.
## Result >41.2

Where these numbers come from: paper PMC9960827
